Entry source: PubChem BioAssay

# maps each entry to its viability
- ASSAY_COMMENT: MRP1 drug-resistance reversers in H69AR cells – cell-based, doxorubicin co-treatment, pilot screen (AID 601)
- EXPERIMENTAL_CONDITIONS: H69AR cells + 2 uM doxorubicin, CellTiter-Glo, 72 h; measured here: viability with 2 uM doxorubicin; at 10 µM; stronger effect = lower value
METRIC: viability

O=C1CC(c2ccccc2)CC(O)=C1C=NCCN1CCN(C(=O)Cc2ccccc2)CC1 (stereo unspecified) :: 94.8%
CC(=O)Nc1ccc(OC(=O)c2ccccc2N)cc1 :: 90.1%
COc1ccc2[nH]cc(CCN(C)C)c2c1 :: 99.5%
CC(=NCCCO)c1c(O)n(Cc2ccccc2)c(=O)[nH]c1=O :: 90.2%
Cc1ccc(C)c(C2(O)CC(C)N(C)CC2C)c1 (stereo unspecified) :: 91.7%
O=C(c1sc2ccccc2c1Cl)N1CCC2(CC1)OCCO2 :: 102%

----------
# maps each entry to its differential viability (reversal)
- ASSAY_COMMENT: MRP1 drug-resistance reversers in H69AR cells – cell-based, doxorubicin co-treatment, pilot screen (AID 601)
- EXPERIMENTAL_CONDITIONS: H69AR cells + 2 uM doxorubicin, CellTiter-Glo, 72 h; at 10 µM; stronger effect = higher value
Calls of active or inactive are those of the source.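 Rule for the calls: active = viability loss from added drug above about 55%, and viability with drug at most 40%, in both replicates (limit read from the data, passing the limit was not always enough); inconclusive = both conditions met in only one replicate; inactive = neither replicate meets both conditions.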
METRIC: differential viability (reversal)

N=C(N)c1c(O)n(C2CCCCC2)c(=O)n(C2CCCCC2)c1=O :: 0.155% (inactive)
CCCCCCn1c(O)c(C=NC2CCN(Cc3ccccc3)CC2)c(=O)[nH]c1=O :: 5.99% (inactive)
Cc1ccc2nc(N3CCN(C)CC3)[nH]c2c1 :: 2.07% (inactive)
CNCCc1c[nH]c2ccccc12 :: -20.1% (inactive)

----------
- ASSAY_TARGET: Pantothenate synthetase (Mycobacterium tuberculosis (strain ATCC 25618 / H37Rv)) (UniProt P9WIL5)
- Sequence (P9WIL5 whole entry, looked up): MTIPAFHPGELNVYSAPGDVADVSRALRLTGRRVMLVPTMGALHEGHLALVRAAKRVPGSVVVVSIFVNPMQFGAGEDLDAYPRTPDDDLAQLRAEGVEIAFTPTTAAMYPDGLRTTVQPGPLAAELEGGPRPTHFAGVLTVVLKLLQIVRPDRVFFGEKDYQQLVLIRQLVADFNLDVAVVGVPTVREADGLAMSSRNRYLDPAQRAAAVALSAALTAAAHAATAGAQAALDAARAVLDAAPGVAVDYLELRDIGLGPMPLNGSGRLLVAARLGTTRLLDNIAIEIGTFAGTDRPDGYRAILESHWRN
- ASSAY_COMMENT: Coupled enzyme confirmation of inhibitors against recombinant Mtb PanC (AID 375);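 note: 0% = full reaction with vehicle and 100% = no enzyme background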
- EXPERIMENTAL_CONDITIONS: coupled enzyme assay; at 10 µM, stronger effect = higher value
METRIC: inhibition (%)

CCCCN1C[C@H](O)[C@@H](O)[C@H](O)[C@H]1CO :: 0
Cc1ccc(-c2nnn(CC(=O)N(CC(=O)NCC3CCCO3)c3ccccc3)n2)o1 (stereo unspecified) :: 3
CCOCCCNC(=O)C(NC(=O)c1ccccn1)c1ccc(C)cc1 (stereo unspecified) :: 0
COC(=O)CN(c1ccc(OC)cc1)S(=O)(=O)c1ccc(OC)c(OC)c1 :: 0
COC(=O)c1c(C#N)c(N)nc2c1CCC2 :: 7
CC1(C)CC(=O)C=C(NC2CCS(=O)(=O)C2)C1 (stereo unspecified) :: 0
c1ccn2c(SCc3ccc4c(c3)OCCO4)nnc2c1 :: 1
O=c1[nH]c2ccc(Br)cc2c(-c2ccccc2)c1N1CCOCC1 :: 1
O=C(O)c1cc2cc(F)ccc2[nH]1 :: 2
Cc1cccc(-n2ncc3c(NCCCO)ncnc32)c1 :: 2
CCn1c(=N)n(CC(O)c2ccco2)c2ccccc21 (stereo unspecified) :: 0
CCOc1ccccc1C1CC(c2ccc(Br)cc2)Nc2nc(N)nn21 (stereo unspecified) :: 10
O=C(c1ccc(F)cc1)C1CCN(CCn2c(=O)[nH]c3ccccc3c2=O)CC1 :: 0
COc1ccc(-n2c(COc3cccc(C)c3)nnc2SCC(=O)NCc2ccco2)cc1 :: 5
COc1ccc(C)cc1-n1nnnc1SC/C(O)=C(\C#N)c1nc2ccccc2[nH]1 :: 4
CCOc1ccc(N2C(=O)CC(N3CC(C)OC(C)C3)C2=O)cc1 (stereo unspecified) :: 0
O=C(O)CCC(=O)Nc1nc(-c2ccccc2)cs1 :: 0
CCOC(=O)C1C(=O)NC(SCC(=O)Nc2nccs2)=C(C#N)C1c1ccccc1OCC (stereo unspecified) :: 0
CCCC(=O)Nc1c2c(nn1-c1ccc(OC)cc1)CS(=O)C2 (stereo unspecified) :: 1
COc1ccccc1N1CCN(C(=O)C2CCCO2)CC1 (stereo unspecified) :: 0
COc1ccccc1-c1nnc2sc(-c3ccc(N(C)C)cc3)nn12 :: 5
Cc1cc(C(=O)N2CCN(C/C=C/c3ccccc3)CC2)no1 :: 0
CCCc1c(O)nc(SCC(=O)NCCc2ccc(OC)c(OC)c2)[nH]c1=O :: 0
Cc1nnc(SCc2cnc(-c3ccccc3)o2)[nH]c1=O :: 0
O=C1c2ccccc2C(=O)N1CCCn1nnc(-c2ccc(N3CCOCC3)cc2)n1 :: 3
N#Cc1cc2sc3nnc(-c4ccncc4)n3c2cc1C#N :: 0
Cc1ccc(-c2noc(CCC(=O)N3CCN(c4cccc(C(F)(F)F)c4)CC3)n2)cc1 :: 0
CCN(C(=O)CCc1nc(-c2ccccc2F)no1)c1cc(OC)ccc1OC :: 0
Cc1cc(C)cc(-n2nnc(C(=O)NCc3ccc4c(c3)OCO4)c2N)c1 :: 0
CCN(CC)S(=O)(=O)c1cccc(-c2nnc(SCC(N)=O)n2CCc2ccccc2)c1 :: 0
Nc1nc2n(n1)C(c1cccc(Cl)c1)CC(c1ccc(F)cc1)N2 (stereo unspecified) :: 0
Cc1cc(C(=O)N2CCCc3ccccc32)no1 :: 3
CC1(C)Cc2c(c(=S)nc(-c3ccccc3)n2CCO)CO1 :: 9
CC(NC(C)(C)C)C(=O)c1cccc(Cl)c1 (stereo unspecified) :: 0
Cc1cc(NS(=O)(=O)c2ccccc2)no1 :: 1
CC1CCc2nn(CC(=O)NCCCN3CCOCC3)cc2C1 (stereo unspecified) :: 0
Cc1noc(NS(=O)(=O)c2ccc(N3C(=O)c4ccccc4C3=O)cc2)c1C :: 3
CN1C(=O)c2oc3ccccc3c(=O)c2C1c1ccccn1 (stereo unspecified) :: 0
Nc1nc(Cl)nc2c1ncn2[C@@H]1O[C@H](CO)[C@@H](O)[C@H]1O :: 3
CCC(C)(C)NC(=O)CN(C(=O)c1snc(C(N)=O)c1N)c1ccc2c(c1)OCO2 :: 11
N#CCc1ccc(NC(=O)Nc2cccc(Cl)c2)cc1 :: 0
